# test system: PLK4 (Homo sapiens, UniProt O00444)
# Sequence (O00444 whole entry): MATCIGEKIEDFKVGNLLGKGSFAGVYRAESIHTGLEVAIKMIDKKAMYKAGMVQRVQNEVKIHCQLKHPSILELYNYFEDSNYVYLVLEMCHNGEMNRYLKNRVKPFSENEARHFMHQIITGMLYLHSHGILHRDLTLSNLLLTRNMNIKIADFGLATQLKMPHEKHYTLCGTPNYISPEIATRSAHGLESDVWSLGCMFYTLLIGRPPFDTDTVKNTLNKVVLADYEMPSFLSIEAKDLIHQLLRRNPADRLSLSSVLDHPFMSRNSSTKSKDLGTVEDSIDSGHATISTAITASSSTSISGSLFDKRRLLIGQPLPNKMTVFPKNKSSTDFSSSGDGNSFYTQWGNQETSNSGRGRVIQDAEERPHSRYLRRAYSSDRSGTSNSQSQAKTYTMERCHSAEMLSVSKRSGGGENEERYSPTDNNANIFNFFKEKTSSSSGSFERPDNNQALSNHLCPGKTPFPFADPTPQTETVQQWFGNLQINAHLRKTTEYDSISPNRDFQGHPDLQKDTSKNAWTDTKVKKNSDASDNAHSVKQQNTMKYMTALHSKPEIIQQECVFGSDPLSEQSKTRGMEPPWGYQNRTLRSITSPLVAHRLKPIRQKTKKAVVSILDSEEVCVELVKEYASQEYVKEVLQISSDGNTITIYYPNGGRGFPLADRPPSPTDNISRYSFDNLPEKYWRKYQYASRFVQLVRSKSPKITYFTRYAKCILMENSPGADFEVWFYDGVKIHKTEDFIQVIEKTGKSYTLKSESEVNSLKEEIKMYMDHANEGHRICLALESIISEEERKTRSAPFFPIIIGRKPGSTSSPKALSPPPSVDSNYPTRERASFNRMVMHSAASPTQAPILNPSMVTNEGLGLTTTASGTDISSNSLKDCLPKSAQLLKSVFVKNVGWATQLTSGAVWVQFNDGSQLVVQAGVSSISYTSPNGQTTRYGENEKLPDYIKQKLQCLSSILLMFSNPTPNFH
# test details: PLK4 NanoBRET target engagement assay
# condition description: HEK293 T cells transfected with PLK4 NanoLuc fusion vector; K-5 tracer; 2 hrs incubation
measurement name: pIC50
By convention, pIC50 is the negative base-10 log of a molar concentration.

CN(C)C(=O)c1c(-c2nc(N(C)c3c(F)cc(S(C)(=O)=O)cc3F)nc(Nc3cc(C4CC4)[nH]n3)c2C2CC2)cnn1C :: 9.00

Request: Report measured pIC50 on PLK4 (Homo sapiens, UniProt O00444); entry: `CN(c1nc(Nc2cc(C3CC3)[nH]n2)c(C2CC2)c(-c2ccn(CCO)n2)n1)c1c(F)cc(S(C)(=O)=O)cc1F`
Result: 8.30

Request: Provide pIC50, system PLK4 (Homo sapiens, UniProt O00444), entry `COc1c(Nc2cc(C)[nH]n2)nc(N(C)c2ccc(Oc3nccs3)cc2)nc1-c1cnn(C)c1`
Result: 6.15

Request: Give pIC50; test system PLK4 (Homo sapiens, UniProt O00444); compound `Cc1cc(Nc2nc(N(C)c3c(F)cc(-c4ccc(=O)n(C)c4)cc3F)nc(-c3cn(C)cn3)c2C2CC2)n[nH]1`
Result: 7.34
